# system_tested: T1, erythropoietin receptor, human recombinant (NSO cells) (human, UniProt P19235 25-250, limits assumed)
# T1 construct: also called EPOR; EPO receptor
# T1 sequence (looked up): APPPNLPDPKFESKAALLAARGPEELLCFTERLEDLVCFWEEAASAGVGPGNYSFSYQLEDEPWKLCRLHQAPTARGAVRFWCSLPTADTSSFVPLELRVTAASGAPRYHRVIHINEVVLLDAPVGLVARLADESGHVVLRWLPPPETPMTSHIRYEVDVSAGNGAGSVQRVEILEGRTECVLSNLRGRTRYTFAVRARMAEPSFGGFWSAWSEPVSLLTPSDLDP
# experiment_notes: radioligand binding, displacement of [125I]EPO
pIC50: −log10 of the molar value. Where no end group is shown, it is not given here.
metric: pIC50

# binder, test_result
rows = [
    ("NYLCRMGPITWVCKP (not fully specified; cysteine pairing not given here, Structure only as drawing CHEM-US-00005; also called compound 003; Control 2: AC-0005-003) [AC-0005-003]", 6.77),
]

meta.source: patent US20170029481A1
